Attribute: pIC50
# experimental.target: Prostaglandin G/H synthase 1 (Homo sapiens)
# Sequence (P23219 whole entry): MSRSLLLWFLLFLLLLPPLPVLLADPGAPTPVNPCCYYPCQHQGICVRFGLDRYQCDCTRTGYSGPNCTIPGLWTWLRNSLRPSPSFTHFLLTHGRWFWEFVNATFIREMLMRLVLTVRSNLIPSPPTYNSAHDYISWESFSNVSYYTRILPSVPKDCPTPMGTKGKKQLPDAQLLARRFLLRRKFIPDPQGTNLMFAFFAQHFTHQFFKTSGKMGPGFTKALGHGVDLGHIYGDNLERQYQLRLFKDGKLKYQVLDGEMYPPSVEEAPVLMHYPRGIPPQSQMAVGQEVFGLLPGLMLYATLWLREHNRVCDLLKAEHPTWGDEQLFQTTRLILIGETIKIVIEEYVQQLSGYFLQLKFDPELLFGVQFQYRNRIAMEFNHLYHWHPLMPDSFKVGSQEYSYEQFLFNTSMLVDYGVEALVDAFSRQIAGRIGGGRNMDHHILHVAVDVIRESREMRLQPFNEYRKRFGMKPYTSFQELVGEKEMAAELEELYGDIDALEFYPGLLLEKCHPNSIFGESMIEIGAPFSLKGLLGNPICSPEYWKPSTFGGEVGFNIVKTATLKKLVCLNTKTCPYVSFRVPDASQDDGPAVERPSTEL
# experimental.details: Inhibition of recombinant human COX-1 using arachidonic acid as substrate by ELISA
pIC50: −log10 of the molar value.
readout: pIC50

compound_structure_string=COc1cccc(/C=c2\c(=O)[nH]n3c(=O)c4ccccc4nc23)c1 readout=pIC50 measured_result=5.83
compound_structure_string=COc1ccc(/C=c2\c(=O)[nH]n3c(=O)c4ccccc4nc23)cc1OC readout=pIC50 measured_result=6.16
compound_structure_string=COc1cc(/C=c2\c(=O)[nH]n3c(=O)c4ccccc4nc23)cc(OC)c1OC readout=pIC50 measured_result=6.18

* * *

# Organism: Homo sapiens
# experimental.details: Selectivity index, ratio of IC50 for inhibition of human COX1 to IC50 for inhibition of human COX2
readout: Ratio IC50

compound=Cc1ccc(-c2nc(N(c3ccccc3)c3ccccc3)sc2C(=O)c2cccs2)cc1 measured_result=61.7
compound=CCc1cc(OC)c(OC)c(OC)c1 measured_result=668
compound="O=C(/N=C1\\SC=C(c2ccc([N+](=O)[O-])cc2)C1c1ccccc1)c1cccc2ccccc12 (configuration not stated)" measured_result=90
compound=Cc1ccc(-c2ncc(Cl)cc2-c2ccc(S(C)(=O)=O)cc2)cn1 measured_result=91.3
compound=N#Cc1c(-c2ccc(Cl)cc2)csc1NC(=O)CN1CCOCC1 measured_result=8.37
compound=Cc1c(C(=O)N2CCN(c3ccccc3)CC2)nc2ccc(Cl)cc2c1O measured_result=7.61
compound=O=C(c1sc(N(c2ccccc2)c2ccccc2)nc1-c1ccc([N+](=O)[O-])cc1)c1cccc2ccccc12 measured_result=115

* * *

# experimental.target: Polyunsaturated fatty acid 5-lipoxygenase (Homo sapiens, UniProt P09917)
# Sequence (P09917 whole entry): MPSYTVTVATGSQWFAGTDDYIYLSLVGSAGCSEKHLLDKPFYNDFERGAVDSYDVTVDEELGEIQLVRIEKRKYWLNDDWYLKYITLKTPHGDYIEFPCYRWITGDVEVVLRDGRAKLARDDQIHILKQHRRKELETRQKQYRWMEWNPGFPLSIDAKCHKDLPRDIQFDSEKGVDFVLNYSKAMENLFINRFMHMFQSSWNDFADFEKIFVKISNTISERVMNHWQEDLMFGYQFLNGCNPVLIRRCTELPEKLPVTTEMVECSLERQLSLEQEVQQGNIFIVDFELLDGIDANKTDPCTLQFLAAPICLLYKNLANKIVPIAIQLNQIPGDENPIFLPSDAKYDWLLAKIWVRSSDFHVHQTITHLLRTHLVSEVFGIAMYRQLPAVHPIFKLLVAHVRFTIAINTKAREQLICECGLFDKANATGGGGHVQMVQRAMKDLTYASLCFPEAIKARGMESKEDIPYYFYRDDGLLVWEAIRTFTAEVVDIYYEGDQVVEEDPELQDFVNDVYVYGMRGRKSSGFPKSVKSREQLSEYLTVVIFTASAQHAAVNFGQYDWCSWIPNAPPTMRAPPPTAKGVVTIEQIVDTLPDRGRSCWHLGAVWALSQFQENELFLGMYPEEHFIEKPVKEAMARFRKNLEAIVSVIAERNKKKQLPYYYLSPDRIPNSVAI
# experimental.details: Inhibition of 5-LOX (unknown origin) using linoleic acid as substrate preincubated for 5 mins followed by substrate addition by spectrophotometric assay
Attribute: IC50
readout: IC50 (nM)

molecule=O=C(c1sc(N(c2ccccc2)c2ccccc2)nc1-c1ccc([N+](=O)[O-])cc1)c1cccc2ccccc12 readout=IC50 measured_result=290
molecule="O=C(/N=C1\\SC=C(c2ccc([N+](=O)[O-])cc2)C1c1ccccc1)c1cccc2ccccc12 (stereo not drawn)" readout=IC50 measured_result=360
molecule=Cc1c(C(=O)N2CCN(c3ccccc3)CC2)nc2ccc(Cl)cc2c1O readout=IC50 measured_result=5910

* * *

# experimental.target: Polyunsaturated fatty acid 5-lipoxygenase (Homo sapiens, UniProt P09917)
# experimental.details: Inhibition of 5-LOX (unknown origin) by colorimetric assay
pIC50: −log10 of the molar value.
Attribute: pIC50
readout: pIC50

compound_structure_string=CC1=NN(c2ccccc2C(=O)O)C(=O)/C1=N/Nc1ccc(S(N)(=O)=O)cc1 readout=pIC50 measured_result=6.28
compound_structure_string=N=C1/C(=N\Nc2ccc(S(N)(=O)=O)cc2)C(N)=NN1c1ccccc1C(=O)O readout=pIC50 measured_result=5.56
compound_structure_string=CC1=NN(c2ccc(S(N)(=O)=O)cc2)C(=O)/C1=N/Nc1ccc(S(N)(=O)=O)cc1 readout=pIC50 measured_result=6.24
compound_structure_string=N=C1/C(=N\Nc2ccc(S(N)(=O)=O)cc2)C(N)=NN1c1ccc(S(N)(=O)=O)cc1 readout=pIC50 measured_result=5.56
compound_structure_string=CC1=NN(c2ccc(S(N)(=O)=O)cc2)C(=O)/C1=N/Nc1ccc(C(=O)O)cc1 readout=pIC50 measured_result=6.28
